Would you kindly list EC50 for each of these compounds?
test system: RWGT2; assay: Cell viability assay (CellTiter-Blue, 72 hr); format: cell-based, Human; details: human cancer cells; read-out: CELL KILLING EC50 (μM) Lung Squam, NSCLC RWGT2
Answers are plain numbers, in µM.

For every item in the list below, what is its measured EC50?
1. CCCCn1c(SCC(=O)c2ccccc2)nc2sc3c(c2c1=O)CCC3
2. C=CCn1c(SCC(=O)c2ccccc2)nc2sc(CC)cc2c1=O
3. C=CCn1c(SCC(=O)c2cccs2)nc2sc3c(c2c1=O)CCCC3

Found:
73.8
44.4
5.07

----------
test system: MDA-MB- 231; assay: Cell viability assay (CellTiter-Blue, 72 hr); format: cell-based, Human; conditions: 72 h, read-out: EC50 (50% reduction of viable cell count at 72 hours); MDA-MB- 231, Human Breast Adenocarcinoma
Measurement type: pEC50
One number for each entry, as −log10 of the molar value.

Kindly note the recorded pEC50 for C=C(C)Cn1c(SCC(=O)c2cccs2)nc2sc3c(c2c1=O)CCCC3 , which is 5.69

----------
test system: Ptch1 transcription; assay: Sufu−/− mouse embryonic fibroblasts qRT-PCR; type: cell-based; conditions: Mus musculus, Fibroblast; read-out: Sufu Null (Ptc) % Inh., 10 μM
Would you kindly list inhibition at 10 µM for each of these compounds?
Numbers only, in %.

Use these answered entries as a reference point.
>  <Compound>
CCn1c(SCC(=O)c2cccs2)nc2sc3c(c2c1=O)CCCC3

>  <inhibition at 10 µM, %>
21.6

$$$$
>  <Compound>
C=C(C)Cn1c(SCC(=O)N2CCCCC2)nc2sc3c(c2c1=O)CCCC3

>  <inhibition at 10 µM, %>
-13.7

$$$$
>  <Compound>
C=C(C)Cn1c(SCC(=O)c2cccn2C)nc2sc3c(c2c1=O)CCCC3

>  <inhibition at 10 µM, %>
52.1

$$$$
>  <Compound>
C=C(C)Cn1c(SCC(=O)c2cccs2)nc2sc3c(c2c1=O)CCCC3

>  <inhibition at 10 µM, %>
65.6

$$$$
>  <Compound>
C=C(C)Cn1c(SCC(=O)N2CCCCC2C)nc2sc3c(c2c1=O)CCCC3 (stereo not shown)

>  <inhibition at 10 µM, %>
77.6

$$$$
>  <Compound>
CCCn1c(SCC(=O)c2cccs2)nc2sc3c(c2c1=O)CCCC3

>  <inhibition at 10 µM, %>
12.1

$$$$

For every item in the list below, what is its measured inhibition at 10 µM?
1. C=C(C)Cn1c(SCC(=O)c2ccccc2)nc2sc3c(c2c1=O)CCCC3
2. C=CCn1c(SCC(=O)c2cccs2)nc2sc3c(c2c1=O)CCCC3
3. O=C(CSc1nc2sc3c(c2c(=O)n1C1CC1)CCCC3)c1ccccc1
4. O=C(CSc1nc2sc3c(c2c(=O)n1C1CC1)CCCC3)c1cccs1

Found:
1: 47.6; 2: 38.1; 3: 41.9; 4: 80.4

----------
test: Lipophilic efficiency (LipE = pEC50 − cLogP) and cLogP; conditions: calculated as pEC50 - cLogP (Molinspiration Cheminformatics); Table 13
Measurement type: LipE
Give bare numbers.

Use these answered entries as a reference point.
>  <Molecule>
C=C(C)Cn1c(SCC(=O)c2cccs2)nccc1=O [Formula 19a]

>  <LipE>
2.06

$$$$
>  <Molecule>
O=C(CSc1nc2sccc2c(=O)n1C1CC1)c1cccs1 [Formula 19b]

>  <LipE>
2.89

$$$$
>  <Molecule>
O=C(CSc1nccc(=O)n1C1CC1)c1ccccc1 [Formula 14c]

>  <LipE>
2.46

$$$$
>  <Molecule>
O=C(CSc1nc2sccc2c(=O)n1C1CC1)c1ccccc1 [Formula 19c]

>  <LipE>
3.84

$$$$

Consider the record given below.
Kindly note the recorded LipE for O=C(CSc1nc2ccccc2c(=O)n1C1CC1)c1cccs1 [Formula 14b] , which is 2.78
